Target: T1, human ferroportin (SLC40A1) fused in frame with GFP, stably expressed in HEK293 cells (human, UniProt Q9NP59 1-571)
T1 sequence (looked up): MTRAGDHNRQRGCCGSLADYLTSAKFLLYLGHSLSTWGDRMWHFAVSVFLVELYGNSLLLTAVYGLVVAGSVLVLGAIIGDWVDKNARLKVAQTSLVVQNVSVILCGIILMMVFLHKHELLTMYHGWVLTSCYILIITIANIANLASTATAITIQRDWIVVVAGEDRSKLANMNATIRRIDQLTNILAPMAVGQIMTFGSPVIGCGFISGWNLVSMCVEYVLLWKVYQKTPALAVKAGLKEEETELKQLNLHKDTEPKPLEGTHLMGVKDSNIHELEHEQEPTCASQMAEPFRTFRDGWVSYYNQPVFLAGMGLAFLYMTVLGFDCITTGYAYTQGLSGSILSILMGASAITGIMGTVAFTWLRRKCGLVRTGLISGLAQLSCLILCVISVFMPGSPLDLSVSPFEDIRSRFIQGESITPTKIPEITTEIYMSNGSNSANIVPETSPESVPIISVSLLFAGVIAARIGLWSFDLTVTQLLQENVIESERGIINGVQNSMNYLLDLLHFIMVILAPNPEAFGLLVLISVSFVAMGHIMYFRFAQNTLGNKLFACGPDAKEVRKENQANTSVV
Test: cell-based or functional assay
Starred links: 1 amine or outer side, 2 acyl side, 3 side chain; linkers in the order of their positions; H or OH if unused. Non-standard residues stand in square brackets, D forms with d. Groups on a side chain read outwards from the residue. No end group written: not given here. *: point of attachment. N_Butyl_Phe = CCCCN([C@@H](Cc1ccccc1)C(=O)[*:2])[*:1]; C18 diacid = O=C(O)CCCCCCCCCCCCCCCCC(=O)*; Dip = N[C@H](C(=O)O)C(c1ccccc1)c1ccccc1; γGlu = O=C(O)[C@H](CCC(=O)[*:2])N[*:1]; Palmitoyl = CCCCCCCCCCCCCCCC(=O)*; Myristoyl = CCCCCCCCCCCCCC(=O)*; β3hF = N[C@H](CC(=O)O)Cc1ccccc1; NMeK = CN[C@@H](CCCCN)C(=O)O; Isovaleryl = CC(C)CC(=O)*; LAc = not defined here; AEEA = NCCOCCOCC(=O)O; Propionyl = CCC(=O)*; Ahx = NCCCCCC(=O)O
# FPN IC50 listing for each entry below
Express the result in nM but write the number alone.

* Isovaleryl-ETHFPAIK([Ahx-Myristoyl])FEPR[dS]-NH2 (SMILES CCCCCCCCCCCCCC(=O)NCCCCCC(=O)NCCCC[C@H](NC(=O)[C@@H](NC(=O)[C@H](C)NC(=O)[C@@H]1CCCN1C(=O)[C@H](Cc1ccccc1)NC(=O)[C@H](Cc1c[nH]cn1)NC(=O)[C@@H](NC(=O)[C@H](CCC(=O)O)NC(=O)CC(C)C)[C@@H](C)O)[C@@H](C)CC)C(=O)N[C@@H](Cc1ccccc1)C(=O)N[C@@H](CCC(=O)O)C(=O)N1CCC[C@H]1C(=O)N[C@@H](CCCNC(=N)N)C(=O)N[C@H](CO)C(N)=O) [Isovaleric Acid-E-T-H-F-P-A-I-[Lys(Ahx_C14_acid)]-F-E-P-R-[(D)Ser]-NH2] | 1160
* XETHXPXX (N-term Isovaleric Acid; Dpa4; Lys(1PEG2_1PEG2_Ahx_C18_Diacid)6; bhPhe7; C-term NH2) [Isovaleric Acid-E-T-H-[Dpa]-P-[Lys(1PEG2_1PEG2_Ahx_C18_Diacid)]-[bhPhe]-NH2] | 367
* Isovaleryl-K(LAc)TH[Dip]PAIK([Ahx-Palmitoyl])[β3hF]-NH2 (reading uncertain) [Isovaleric Acid-[Lys(LAc-T-H-[Dpa]-P-A-I-[Lys(Ahx_Palm)]-[bhPhe]-NH2] | 27.5
* Cyclohexanoic_Acid-LTH[Dip]PK([Ahx-Palmitoyl])[N_Butyl_Phe] [Cyclohexanoic_Acid-L-T-H-[Dpa]-P-[Lys(Ahx_Palm)]-N_Butyl_Phe] | 3380
* Isovaleryl-LTH[Dip]PK([γGlu-Palmitoyl])[N_Butyl_Phe] [Isovaleric Acid-L-T-H-[Dpa]-P-[Lys(IsoGlu_Palm)]-N_Butyl_Phe] | 222
* Isovaleryl-K([AEEA-AEEA-γGlu-C18 diacid])TH[Dip]PAI[dK][β3hF]-NH2 (SMILES CC[C@H](C)[C@H](NC(=O)[C@H](C)NC(=O)[C@@H]1CCCN1C(=O)[C@@H](NC(=O)[C@H](Cc1c[nH]cn1)NC(=O)[C@@H](NC(=O)[C@H](CCCCNC(=O)COCCOCCNC(=O)COCCOCCNC(=O)CC[C@H](NC(=O)CCCCCCCCCCCCCCCCC(=O)O)C(=O)O)NC(=O)CC(C)C)[C@@H](C)O)C(c1ccccc1)c1ccccc1)C(=O)N[C@H](CCCCN)C(=O)N[C@H](CC(N)=O)Cc1ccccc1) [Isovaleric Acid-[Lys(1PEG2_1PEG2_IsoGlu_C18_Diacid)]-T-H-[Dpa]-P-A-I-[(D)Lys]-[bhPhe]-NH2] | 2160
* XETHXPXX (N-term Isovaleric Acid; Dpa4; Lys(1PEG2_1PEG2_IsoGlu_C18_Diacid)6; C-term N_Butyl_Phe) [Isovaleric Acid-E-T-H-[Dpa]-P-[Lys(1PEG2_1PEG2_IsoGlu_C18_Diacid)]-N_Butyl_Phe] | 448
* Isovaleryl-LTH[Dip]P[NMeK]([Ahx-Palmitoyl])[N_Butyl_Phe] [Isovaleric Acid-L-T-H-[Dpa]-P-NMe[Lys(Ahx_Palm)]-N_Butyl_Phe] | 62.6

**Query** Return the recorded FPN IC50 value; entry: Isovaleryl-K([Ahx-Palmitoyl])TH[Dip]PAI[dK][β3hF]-NH2 (SMILES CCCCCCCCCCCCCCCC(=O)NCCCCCC(=O)NCCCC[C@H](NC(=O)CC(C)C)C(=O)N[C@H](C(=O)N[C@@H](Cc1c[nH]cn1)C(=O)N[C@H](C(=O)N1CCC[C@H]1C(=O)N[C@@H](C)C(=O)N[C@H](C(=O)N[C@H](CCCCN)C(=O)N[C@H](CC(N)=O)Cc1ccccc1)[C@@H](C)CC)C(c1ccccc1)c1ccccc1)[C@@H](C)O) [Isovaleric Acid-[Lys(Ahx_Palm)]-T-H-[Dpa]-P-A-I-[(D)Lys]-[bhPhe]-NH2; 1]
**Result** 598

**Query** Dear colleague, please send me the reported FPN IC50 for Propionyl-LTH[Dip]PK([Ahx-Palmitoyl])[N_Butyl_Phe] [[Propionic_acid]-L-T-H-[Dpa]-P-[Lys(Ahx_Palm)]-N_Butyl_Phe] when you can.
**Result** 218

**Query** Give FPN IC50 for Isovaleryl-LTH[Dip]P[N_Butyl_Phe] [Isovaleric Acid-L-T-H-[Dpa]-P-N_Butyl_Phe]
**Result** 1040

**Query** Specify reported FPN IC50 for the binder shown: Isovaleryl-LTH[Dip]PAIK([Ahx-Palmitoyl])L-NH2 (SMILES CCCCCCCCCCCCCCCC(=O)NCCCCCC(=O)NCCCC[C@H](NC(=O)[C@@H](NC(=O)[C@H](C)NC(=O)[C@@H]1CCCN1C(=O)[C@@H](NC(=O)[C@H](Cc1c[nH]cn1)NC(=O)[C@@H](NC(=O)[C@H](CC(C)C)NC(=O)CC(C)C)[C@@H](C)O)C(c1ccccc1)c1ccccc1)[C@@H](C)CC)C(=O)N[C@@H](CC(C)C)C(N)=O) [Isovaleric Acid-L-T-H-[Dpa]-P-A-I-[Lys(Ahx_Palm)]-L-NH2]
**Result** 169

**Query** Find the measured FPN IC50 of Isovaleryl-LTH[Dip]PK([Ahx-Palmitoyl])[N_Butyl_Phe] [Isovaleric Acid-L-T-H-[Dpa]-P-[Lys(Ahx_Palm)]-N_Butyl_Phe] and report it.
**Result** 74

**Query** Assign FPN IC50 to the following record: XETHXPXX (not fully specified; N-term Isovaleric Acid; Dpa4; d[Lys(1PEG2_1PEG2_Ahx_C18_Diacid)]6; bhPhe7; C-term NH2) [Isovaleric Acid-E-T-H-[Dpa]-P-d[Lys(1PEG2_1PEG2_Ahx_C18_Diacid)]-[bhPhe]-NH2]
**Result** 86.8
